# Target of assay: Mushroom tyrosinase (Agaricus bisporus, UniProt O42713+Q00024+C7FF04+C7FF05)
# Run description: Inhibition of Agaricus bisporus tyrosinase using L-dopa as substrate preincubated with compound for 20 mins followed by substrate addition measured after 5 mins by absorbance based assay
Measure: IC50 (nM)

cpd_smiles=COc1ccc(C(=O)CCc2ccc(O)cc2O)c(O)c1 measure=IC50 quantitative_result=183
cpd_smiles=COc1cc(C(=O)CCc2ccc(O)cc2O)ccc1O measure=IC50 quantitative_result=165
cpd_smiles=COc1ccc(C(=O)CCc2ccc(O)cc2O)cc1O measure=IC50 quantitative_result=245
cpd_smiles=O=C(CCc1ccc(O)cc1O)c1ccc(Br)cc1 measure=IC50 quantitative_result=184

(A) Cc1cccc(C(=O)CCc2ccc(O)cc2O)c1
(B) O=C(CCc1ccc(O)cc1O)c1ccc(O)cc1O
(C) CC(C)c1ccc(C(=O)CCc2ccc(O)cc2O)cc1
Query block: Sort low-to-high on IC50, please. Answer format: list of labels, ordered as asked.
Result block: B, A, C

###

# Target of assay: Mushroom tyrosinase (Agaricus bisporus, UniProt O42713+Q00024+C7FF04+C7FF05)
# Run description: Inhibition of Agaricus bisporus tyrosinase using L-tyrosine as substrate preincubated with compound for 20 mins followed by substrate addition measured after 10 mins by absorbance based assay
Measure: IC50 (µM)

These solved cases illustrate the format of a correct answer.
cpd_smiles=COc1ccc(C(=O)CCc2ccc(O)cc2O)c(O)c1 quantitative_result=0.069
cpd_smiles=COc1ccc(C(=O)CCc2ccc(O)cc2O)cc1O quantitative_result=0.069
cpd_smiles=COc1cc(C(=O)CCc2ccc(O)cc2O)ccc1O quantitative_result=0.054
cpd_smiles=CC(C)c1ccc(C(=O)CCc2ccc(O)cc2O)cc1 quantitative_result=0.232

(A) O=C(CCc1ccc(O)cc1O)c1ccccc1
(B) O=C(CCc1ccc(O)cc1O)c1ccc(-c2ccccc2)cc1
Query block: API: POST /compare with A and B ; response names the item with higher IC50. // caller expects the label of the chosen entry
Result block: B

###

# Target of assay: Mushroom tyrosinase (Agaricus bisporus, UniProt O42713+Q00024+C7FF04+C7FF05)
# Run description: Inhibition of Agaricus bisporus tyrosinase using L-dopa as substrate preincubated with compound for 20 mins followed by substrate addition measured after 5 mins by absorbance based assay
Measure: IC50

cpd_smiles=COc1cccc(CCC(=O)c2ccc(O)cc2O)c1 measure=IC50 result="> 10 µM"

Query block: Suppose we examine the compound "COc1ccc(C(=O)CCc2ccc(O)cc2)c(O)c1" ; what IC50 value has been reported?
Result block: > 10 µM

Query block: Entry "O=C(CCc1ccc(O)cc1O)c1ccccc1O" : reported IC50 = ?
Result block: 0.286 µM

Query block: # query: IC50 of entry "COc1cccc(CCC(=O)c2ccc(O)cc2O)c1OC"
Result block: > 10 µM

Query block: Record request: IC50 value, item "O=C(CCc1ccc(O)c(O)c1)c1ccc(O)cc1O"
Result block: > 10 µM

Query block: Give the measured IC50 of "O=C(CCc1ccc(O)cc1O)c1ccc(O)cc1" .
Result block: 0.212 µM
